tested on: COLO 205; assay: NCI tumour cell line growth inhibition, 48 h
Active and inactive are the calls of the source. Cut-off read from the data, not from the text of the source: active = GI50 up to about 1.1 µM and inactive = higher.
Possible outcomes: active, inactive

molecule | assigned_class
CC(C)=NNc1ncnc2[nH]cnc12 | inactive
O=c1/c(=C/c2ccc(-c3ccc(Cl)cc3Cl)o2)sc2n1[C@@H](c1ccc(Cl)cc1)C=C(c1cc(F)c(Cl)cc1Cl)N=2 | inactive
CC(=O)OC(C)c1cc2c(s1)C(=O)c1scc(C(C)OC(C)=O)c1C2=O (stereo unspecified) | active
O=c1c2ccccc2[se]n1-c1cccnc1 | inactive
N#CC1(C#N)C2C=CC(c3coc4cccc2c34)C1(C#N)C#N (stereo unspecified) | inactive
CCOC(=O)c1c(CN2CCOCC2)n(Cc2ccccc2)c2c1cc(O)c1nc(C)c(C)nc12 | inactive
O=c1oc2ccccc2c(O)c1C1c2c(c3ccccc3oc2=O)Oc2c1c(=O)oc1ccccc21 | inactive
OCCSCC(O)Cn1cnc2c(O)nc(Nc3ccccc3)nc21 (stereo unspecified) | inactive
COc1cc(/C=C/C(=O)c2sc(-n3nc(-c4ccccc4)cc3-c3ccccc3)nc2C)ccc1O | inactive
CCN(CC)C(=S)SC [METHYLDIETHYL CARBAMODITHIOATE] | inactive
CCCCSC(=CC(=O)c1cccc(C(=O)C=C(SCCCC)SCCCC)n1)SCCCC | inactive
CN(C)CCc1ccnc2nc(-c3ccc4ccccc4c3)cn12 | inactive
CCOCCOC(=O)C1CCC(=O)N1CN(C(C)=O)c1cc(OC)ccc1OC (stereo unspecified) | inactive
CC(C)C(=O)NCC[C@@H](CNC(=O)OC(C)(C)C)NC(=O)OC(C)(C)C | inactive
COc1cc(C(C)O)c[n+](Cc2ccccc2)c1 (stereo unspecified) | inactive
CCOC(=O)Nc1nn(C)/c(=N/Cc2ccccc2)s1 | inactive
Cc1cc(C2(c3cc(C)c(O)c4ncccc34)OC(=O)c3ccccc32)c2cccnc2c1O | active
CC(C)CC(NC=O)C(=O)NC(Cc1ccccc1)NC(=O)CNC(=O)C(C)NC(=O)OC(C)(C)C (stereo unspecified) | inactive
CN1c2ccccc2NC(CC(=O)O)C2CC=CN21 (stereo unspecified) | inactive
COC(=O)C1Cc2c(n(C)c3ccccc23)C(CCC(=O)O)N1Cc1ccccc1 (stereo unspecified) | inactive
CC1(C)OP(=O)(O)C=C1Sc1ccc([N+](=O)[O-])cc1[N+](=O)[O-] | inactive
